Overview of reported abundance fitness across a group of variants:
B1: Histone H1t, residues 44 to 112; numbered along this chain, P22492 (parent)
chain: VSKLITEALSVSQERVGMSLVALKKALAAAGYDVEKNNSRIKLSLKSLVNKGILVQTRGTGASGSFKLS

Variants of: B1
assayRemarks: abundance fitness (aPCA) (normalised: wild type 0, dead -1); higher = more abundant; growth selection in yeast, the domain comes from the species named
conditions: Homo sapiens
readoutKind: abundance fitness

- L68C: -0.202
- G31L: -0.297
- K36T: -0.323
- F66H: -0.289
- R40P: -0.444
- K36M: -0.285
- Y32S: -0.14
- A29E: 0.066
- V55C: -0.077
- K42P: -0.682
- G52D: -0.08
- A22E: -0.801
- A29S: -0.039
- T60W: -0.123
- L27C: -0.394
- I41P: -0.394
